As shown below, each of these compounds has a reported log10 Kic value.
# Organism: Sus scrofa
# test name: Competitive inhibition of pig PAP using varying levels of pNPP as substrate measured at pH 4.9 by UV-vis spectrophotometric analysis
The base-10 logarithm of Kic, taken with Kic in µM, is what appears here.

compound="CCCCCCCCCCCCCCCCCCCCCCOC(c1cccc2ccccc12)P(=O)(O)O (racemic)" outcome_measure="log10 Kic" endpoint_result=1.79
compound="CCCCCCCCCCCCCCCCOC(c1cccc2ccccc12)P(=O)(O)O (racemic)" outcome_measure="log10 Kic" endpoint_result=-0.22
compound="CCCCCCCCCCCCCCOC(c1cccc2ccccc12)P(=O)(O)O (racemic)" outcome_measure="log10 Kic" endpoint_result=0.04
compound="CCCCCCCCCCCCCCCCCCOC(c1cccc2ccccc12)P(=O)(O)O (racemic)" outcome_measure="log10 Kic" endpoint_result=-0.70
compound="CCCCCCCCCCCCOC(c1cccc2ccccc12)P(=O)(O)O (racemic)" outcome_measure="log10 Kic" endpoint_result=-0.15

Request: GET /values?readout=log10 Kic&item= CCCCCCCCCCCCCCCCCCCCOC(c1cccc2ccccc12)P(=O)(O)O (racemic)
Response: 0.64

###

# target entity: Fe(3+)-Zn(2+) purple acid phosphatase (Phaseolus vulgaris)
# Sequence (whole entry): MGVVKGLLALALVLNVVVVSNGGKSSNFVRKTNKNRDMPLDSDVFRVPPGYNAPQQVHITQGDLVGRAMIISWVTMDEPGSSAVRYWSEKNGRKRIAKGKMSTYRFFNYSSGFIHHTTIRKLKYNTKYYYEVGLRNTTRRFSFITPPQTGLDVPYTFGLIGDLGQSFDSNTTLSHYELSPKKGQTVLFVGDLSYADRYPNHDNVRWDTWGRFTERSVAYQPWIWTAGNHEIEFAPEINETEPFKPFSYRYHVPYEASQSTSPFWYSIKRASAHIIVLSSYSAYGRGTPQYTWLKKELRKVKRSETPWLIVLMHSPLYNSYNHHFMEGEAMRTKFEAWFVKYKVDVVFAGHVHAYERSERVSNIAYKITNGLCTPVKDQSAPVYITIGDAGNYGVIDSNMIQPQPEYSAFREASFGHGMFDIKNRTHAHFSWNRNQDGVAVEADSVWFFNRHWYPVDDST
# test name: Competitive inhibition of red kidney bean PAP using varying levels of pNPP as substrate measured at pH 6.2 by UV-vis spectrophotometric analysis
outcome measure: log10 of Kic (log10 of the value in µM)
// do not treat as linear: log10 of Kic, unit µM

Sample records with log10 of Kic:
compound="CCCCCCCCCCCCCCCCOC(c1cccc2ccccc12)P(=O)(O)O (racemic)" target_entity="Fe(3+)-Zn(2+) purple acid phosphatase (Phaseolus vulgaris)" endpoint_result=-0.40
compound="CCCCCCCCCCCCOC(c1cccc2ccccc12)P(=O)(O)O (racemic)" target_entity="Fe(3+)-Zn(2+) purple acid phosphatase (Phaseolus vulgaris)" endpoint_result=0.65
compound="CCCCCCCCCCCCCCCCCCCCOC(c1cccc2ccccc12)P(=O)(O)O (racemic)" target_entity="Fe(3+)-Zn(2+) purple acid phosphatase (Phaseolus vulgaris)" endpoint_result=-0.10
compound="CCCCCCCCCCCCCCCCCCOC(c1cccc2ccccc12)P(=O)(O)O (racemic)" target_entity="Fe(3+)-Zn(2+) purple acid phosphatase (Phaseolus vulgaris)" endpoint_result=-0.30

Request: log10 of Kic for CCCCCCCCCCCCCCOC(c1cccc2ccccc12)P(=O)(O)O (racemic) ?
Response: -0.70

Request: Which log10 of Kic is reported for this compound? CCCCCCCCCCCCCCCCCCCCCCOC(c1cccc2ccccc12)P(=O)(O)O (racemic)
Response: 1.15
